Provide the reported pIC50 of each item.
Test system: PMA-differentiated THP-1 cells
Assay: IL-1β production in PMA-differentiated THP-1 cells stimulated with gramicidin (hTHP-1 assay containing 2% fetal bovine serum; Procedures 1 and 2)
Format: cell-based, human
Settings: Homo sapiens, THP-1, Table B2; 2% fetal bovine serum; class symbols; read-out: hTHP-1 IC50
pIC50: −log10 of the molar value.

Sample records with pIC50:
• C[C@@H]1CCc2c1nc1c(c2NC(=O)N=S(N)(=O)c2ccn(C)n2)CCC1 (single isomer, unassigned) [Compound 639b] = 6.00 to 6.70
• CC(C)c1nc(C(F)(F)F)nc(C(C)C)c1NC(=O)N=S(N)(=O)c1sc(C(C)(C)O)nc1CO (stereo not drawn) [Compound 713] = 5.30 to 6.00
• CCc1nc2c(c(NC(=O)N=S(N)(=O)c3ccn(C(F)F)n3)c1C1CC1)CCC2 (stereo not drawn) [Compound 629] = 5.30 to 6.00
• Cc1nc2c(c(NC(=O)N=S(N)(=O)c3ncc(C(C)(C)O)s3)c1C1CC1)CCC2 (stereo not drawn) [Compound 618] = 5.30 to 6.00
• CC1CCc2c1nc1c(c2NC(=O)N=S(N)(=O)c2cc(C(C)(C)O)n(-c3ccccc3)n2)CCC1 (single isomer, unassigned) [Compound 664b] = 5.30 to 6.00

Continue with the next molecule.
Qu. Give me measured pIC50, please, for this molecule: CC(C)n1cc(Cl)c(S(N)(=O)=NC(=O)Nc2c3c(nc4c2CCC4)CCC3)n1 (stereo not drawn) [Compound 694]
Ans. 5.30 to 6.00

* * *

Provide the reported pIC50 of each item.
System: PMA-differentiated THP-1 cells
Experiment: IL-1β production in PMA-differentiated THP-1 cells stimulated with gramicidin (hTHP-1 assay containing 2% fetal bovine serum; Procedures 1 and 2)
Format: cell-based, human
Settings: Homo sapiens, THP-1, Table B2; 2% fetal bovine serum; class symbols; read-out: hTHP-1 IC50
pIC50: −log10 of the molar value.

Sample records with pIC50:
- CC(C)(O)c1cc(F)c(S(N)(=O)=NC(=O)Nc2cc(CC(F)(F)F)nc3c2CCC3)s1 (centres unmarked) [Compound 602]: 5.30 to 6.00
- Cc1c(C(C)(C)C)nc2c(c1NC(=O)N=S(N)(=O)c1cc(C(C)(C)O)cs1)CCC2 (centres unmarked) [Compound 657]: 4.52 to 5.30

Record pIC50 for all entries; do not skip any.
1. CC(C)c1cc(C#N)nc(C(C)C)c1NC(=O)NS(=N)(=O)c1sc(C(C)(C)O)nc1CO (centres unmarked) [Compound 696]
2. Cc1nc2c(c(NC(=O)N=S(N)(=O)c3ncc(C(C)(C)O)s3)c1C1CC1)CCC2 (single isomer, unassigned) [Compound 618b]
3. CC(C)(O)c1ccc(S(N)(=O)=NC(=O)Nc2c3c(nc4c2CCC4)CCC3)cc1 (single isomer, unassigned) [Compound 633b]
4. CC(C)(O)c1cnc(S(N)(=O)=NC(=O)Nc2c3c(nc4c2CCC42CC2)CCC3)s1 (centres unmarked) [Compound 683]
5. Cc1c(C2(F)CC2)nc2c(c1NC(=O)N=S(N)(=O)c1sc(C(C)(C)O)cc1F)CCC2 (centres unmarked) [Compound 733]
6. CC(C)(O)c1cncc(S(N)(=O)=NC(=O)Nc2c3c(nc4c2CCC4(C)C)CCC3)c1 (centres unmarked) [Compound 684]

Ans.
1. 4.52 to 5.30
2. 6.00 to 6.70
3. 4.52 to 5.30
4. 5.30 to 6.00
5. 5.30 to 6.00
6. 6.00 to 6.70
